biological target: UniProt:P09874; experiment: PARP enzyme inhibition assay; type: biochemical; settings: [32P]NAD+ incorporation, 500 μM NAD+, 25° C.; two values in a cell = tested twice; read-out: Inhibition Constant Ki
Sequence (P09874 whole entry): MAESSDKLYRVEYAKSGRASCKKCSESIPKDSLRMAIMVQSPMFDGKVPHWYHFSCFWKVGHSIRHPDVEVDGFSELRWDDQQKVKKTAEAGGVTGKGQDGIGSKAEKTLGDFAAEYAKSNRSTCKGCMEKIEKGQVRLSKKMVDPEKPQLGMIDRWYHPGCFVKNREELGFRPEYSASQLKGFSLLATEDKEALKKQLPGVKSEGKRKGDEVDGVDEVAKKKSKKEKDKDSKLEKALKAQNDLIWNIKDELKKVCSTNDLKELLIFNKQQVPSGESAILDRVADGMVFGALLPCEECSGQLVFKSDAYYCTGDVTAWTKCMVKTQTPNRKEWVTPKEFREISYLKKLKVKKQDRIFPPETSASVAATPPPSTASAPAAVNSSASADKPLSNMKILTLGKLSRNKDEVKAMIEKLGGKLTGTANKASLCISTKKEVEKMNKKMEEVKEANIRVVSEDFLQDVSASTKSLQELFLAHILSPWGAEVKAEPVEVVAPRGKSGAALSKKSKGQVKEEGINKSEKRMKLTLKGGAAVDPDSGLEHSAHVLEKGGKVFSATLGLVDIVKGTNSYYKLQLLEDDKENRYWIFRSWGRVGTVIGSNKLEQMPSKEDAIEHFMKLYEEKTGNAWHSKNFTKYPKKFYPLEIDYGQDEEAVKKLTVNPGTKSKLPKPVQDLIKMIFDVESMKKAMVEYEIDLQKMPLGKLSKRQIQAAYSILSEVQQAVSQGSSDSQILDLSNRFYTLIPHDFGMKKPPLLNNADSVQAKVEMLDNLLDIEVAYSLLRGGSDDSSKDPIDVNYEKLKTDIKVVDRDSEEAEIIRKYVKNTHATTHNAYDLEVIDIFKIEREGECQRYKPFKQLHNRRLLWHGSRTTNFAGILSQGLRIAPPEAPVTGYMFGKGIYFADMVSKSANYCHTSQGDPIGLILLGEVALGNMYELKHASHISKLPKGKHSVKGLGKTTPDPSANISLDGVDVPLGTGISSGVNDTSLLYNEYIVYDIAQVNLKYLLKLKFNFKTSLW
Documented pKi across a set of molecules
Quick note: pKi means taking -log10 of the concentration in moles per liter.

Consider the worked cases shown below.
O=C1NCCc2c(-c3ccc(CN4CCCC4)c(F)c3)[nH]c3cccc1c23    7.99
O=C1NCCc2c(CCc3ccccc3)[nH]c3cccc1c23    7.62

Query: Returns the measured pKi for the input molecule. Input: `COC(=O)c1[nH]c2cccc3c2c1CCNC3=O`
Result: 8.29

Query: Returns the measured pKi for the input molecule. Input: `CNCc1cccc(-c2[nH]c3cc(F)cc4c3c2CCNC4=O)c1`
Result: 8.66

Query: Returns the measured pKi for the input molecule. Input: `O=C1NCCc2c(-c3cccc(-c4ccccc4)c3)[nH]c3cccc1c23`
Result: 7.64

Query: Returns the measured pKi for the input molecule. Input: `O=C1NCCc2c(-c3ccc(O)cc3)[nH]c3cccc1c23`
Result: 8.14

Query: Returns the measured pKi for the input molecule. Input: `O=C1NCc2c(-c3ccccc3)[nH]c3cccc1c23`
Result: 8.55

Query: Returns the measured pKi for the input molecule. Input: `O=C1NN=Cc2c(-c3ccc(F)cc3)[nH]c3cccc1c23`
Result: 8.96

Query: Returns the measured pKi for the input molecule. Input: `O=C1NN=Cc2c(-c3ccc(Cl)cc3)[nH]c3cccc1c23`
Result: 9.15

Query: Returns the measured pKi for the input molecule. Input: `Cn1cc2c3c(cccc31)C(=O)NCC2`
Result: 7.21

Query: Returns the measured pKi for the input molecule. Input: O=C1NCC(c2ccccc2)c2c[nH]c3cccc1c23 (racemic)
Result: 7.35

Query: Returns the measured pKi for the input molecule. Input: `O=C1NCCc2c(-c3cccc(CO)c3)[nH]c3cccc1c23`
Result: 8.30

Query: Returns the measured pKi for the input molecule. Input: `O=C(Nc1ccc(F)cc1)c1[nH]c2cccc3c2c1CCNC3=O`
Result: 8.20

Query: Returns the measured pKi for the input molecule. Input: `CCCCCCCCOC(=O)c1[nH]c2cccc3c2c1CCNC3=O`
Result: 6.90

Query: Returns the measured pKi for the input molecule. Input: O=C(O)c1[nH]c2cccc3c2c1CCNC3=O [XXX]
Result: 6.43

Query: Returns the measured pKi for the input molecule. Input: `O=C1NCCc2c(Br)[nH]c3cccc1c23`
Result: 8.14

Query: Returns the measured pKi for the input molecule. Input: `O=C1NCCc2c[nH]c3cccc1c23`
Result: 7.42

Query: Returns the measured pKi for the input molecule. Input: `O=C(Nc1cccc2ccccc12)c1[nH]c2cccc3c2c1CCNC3=O`
Result: 8.00

Query: Returns the measured pKi for the input molecule. Input: `CN(C)Cc1cccc(-c2[nH]c3cccc4c3c2CNC4=O)c1`
Result: 8.40

Query: Returns the measured pKi for the input molecule. Input: `O=C1NN=C(c2ccc(C(F)(F)F)cc2)c2c[nH]c3cccc1c23`
Result: 8.05

Query: Returns the measured pKi for the input molecule. Input: `O=C1NCCc2c(-c3ccc(CN4CCOCC4)cc3)[nH]c3cccc1c23`
Result: 7.88

Query: Returns the measured pKi for the input molecule. Input: `C#CCNC(=O)c1[nH]c2cccc3c2c1CCNC3=O`
Result: 7.89

Query: Returns the measured pKi for the input molecule. Input: `O=C1NCCc2c(-c3ccc4ccccc4c3)[nH]c3cccc1c23`
Result: 8.34

Query: Returns the measured pKi for the input molecule. Input: `CC(C)(C)c1ccc(-c2[nH]c3cccc4c3c2CCNC4=O)cc1`
Result: 7.54
